TARGET_UNDER_TEST: Mfd (Escherichia coli, UniProt P30958 1-1148)
ASSAY_EXPLANATION: SPR; 0.5 mM ATPgS; SPR: 30 mM Tris/HCl pH 7.6, 40 mM KCl, 5 mM MgCl2, 0.005% P20, 0.25 mM EDTA, 0.5 mM DTT, 0.5 mM ATPgS, 20 C; smFRET: 20 mM Tris/HCl pH 8.0, 40 mM KCl, 5 mM MgCl2, 1 mM 2-mercaptoethanol
MEASUREMENT_PARAMETERS: protein: recombinant; tags: none stated; label: 5' biotin on AS18; 18 bp with 5' overhang 40 nt
READOUT_KIND: pKd
# log scale: pKd equals minus log10 of the concentration in mol/L

The binder identified as dT40_S18:bio_AS18 (dsDNA) DNA 1: TTTTTTTTTTTTTTTTTTTTTTTTTTTTTTTTTTTTTTTTGCCTCGCTGCCGTCGCCA DNA 2: TGGCGACGGCAGCGAGGC registered its pKd at 6.52
